System: HDQ-P1
Details: 72 h
observed.property: EC50, CellTox Green (nM)
Numbers only here, please. The scale is nM.

Past entries and their recorded results:
[[record]]
chemical_structure = "CN(c1ccccc1CNc1nc(Nc2ccc3c(c2)CC(=O)N3)ncc1C(F)(F)F)S(C)(=O)=O"
unit_abbrev = "nM"
measurement = 20.9

[[record]]
chemical_structure = "Cn1cnc2c(F)c(Nc3ccc(Br)cc3F)c(C(=O)NOCCO)cc21"
unit_abbrev = "nM"
measurement = 123

[[record]]
chemical_structure = "CC(C)C[C@H](NC(=O)[C@H](Cc1ccccc1)NC(=O)c1cnccn1)B(O)O"
unit_abbrev = "nM"
measurement = 15


Next molecule, EC50, CellTox Green to be filled in.
Query: What does the record list as EC50, CellTox Green for `O=c1[nH]c(=O)n([C@H]2C[C@H](O)[C@@H](CO)O2)cc1F` ?
Reply: 3070

----------
System: HCC1143
Assay: normalised viability (% of control), CellTiter-Blue; higher = more viable cells (about 100 = DMSO control)
Conditions: 1000 nM; incubation time: 72 h
Threshold check on normalised viability: strictly below 90% is Met; on or above 90% is Not met.

// known answers, use as guide
[[record]]
chemical_structure = "CCS(=O)(=O)c1cccc(-c2cc(C(=O)NC3CCN(C)CC3)c(C)c3[nH]c4ncc(C)cc4c23)c1"
assigned_label = "Met"

[[record]]
chemical_structure = "COc1c(C)cnc(Cn2cnc3c(Cl)nc(N)nc32)c1C"
assigned_label = "Met"


Query: Please let me know if `COc1ncc(-c2ccc3nccc(-c4ccnnc4)c3c2)cc1NS(=O)(=O)c1ccc(F)cc1F` shows normalised viability below 90%.
Reply: Met

Query: Please let me know if `CC(C)(C)c1cc(NC(=O)Nc2ccc(-c3cn4c(n3)sc3cc(OCCN5CCOCC5)ccc34)cc2)no1` shows normalised viability below 90%.
Reply: Not met

----------
Test system: CAL-51
Assay: normalised viability (% of control), CellTiter-Blue; higher = more viable cells (about 100 = DMSO control)
Settings: 10 nM; incubation time: 72 h
Items are presented alongside their recorded normalised viability.
Numbers only here, please. The scale is %.

Past entries and their recorded results:
[[record]]
compound = "CCCC(CCC)C(=O)O"
observed_property = "normalised viability"
unit_abbrev = "%"
measurement = 97.8

[[record]]
compound = "c1ccc(C2CN3CCSC3=N2)cc1 (stereo unspecified)"
observed_property = "normalised viability"
unit_abbrev = "%"
measurement = 95.2

[[record]]
compound = "O=c1[nH]cc(F)c(=O)[nH]1"
observed_property = "normalised viability"
unit_abbrev = "%"
measurement = 105

[[record]]
compound = "COc1cc(Nc2ncc(F)c(Nc3ccc4c(n3)NC(=O)C(C)(C)O4)n2)cc(OC)c1OC"
observed_property = "normalised viability"
unit_abbrev = "%"
measurement = 107

[[record]]
compound = "C#Cc1cccc(Nc2ncnc3cc(OC)c(OCCCCCCC(=O)NO)cc23)c1"
observed_property = "normalised viability"
unit_abbrev = "%"
measurement = 113


Next compound, normalised viability to be filled in.
Query: What does the record list as normalised viability for O=P(O)(NCCCl)NCCCl [Ifosfamide mustard] ?
Reply: 107

----------
Test system: CAL-120
Assay: normalised response (% of control), CellTiter-Glo; higher = more viable cells (100 = DMSO, 0 = benzethonium chloride kill control)
Details: incubation time: 72 h
observed.property: normalised response (%)
Numbers only here, please. The scale is %.

Past entries and their recorded results:
[[record]]
compound = "FC(F)c1nc2ccccc2n1-c1nc(N2CCOCC2)nc(N2CCOCC2)n1 [ZSTK474] (10000 nM)"
experimental_target = "CAL-120"
unit_abbrev = "%"
measurement = 34.6

[[record]]
compound = "CC(=O)O[C@H]1C(=O)[C@@]2(C)[C@H]([C@H](OC(=O)c3ccccc3)[C@]3(O)C[C@H](OC(=O)[C@H](O)[C@@H](NC(=O)c4ccccc4)c4ccccc4)C(C)=C1C3(C)C)[C@]1(OC(C)=O)CO[C@@H]1C[C@@H]2O [Paclitaxel] (1000 nM)"
experimental_target = "CAL-120"
unit_abbrev = "%"
measurement = 48.9


Query: What does the record list as normalised response for C[C@@H]1CCN(C(=O)CC#N)C[C@@H]1N(C)c1ncnc2[nH]ccc12 [Tofacitinib] (5000 nM) ?
Reply: 99.8
